Biological target: glucagon receptor (human, UniProt P47871 26-477)
Sequence (P47871 26-477): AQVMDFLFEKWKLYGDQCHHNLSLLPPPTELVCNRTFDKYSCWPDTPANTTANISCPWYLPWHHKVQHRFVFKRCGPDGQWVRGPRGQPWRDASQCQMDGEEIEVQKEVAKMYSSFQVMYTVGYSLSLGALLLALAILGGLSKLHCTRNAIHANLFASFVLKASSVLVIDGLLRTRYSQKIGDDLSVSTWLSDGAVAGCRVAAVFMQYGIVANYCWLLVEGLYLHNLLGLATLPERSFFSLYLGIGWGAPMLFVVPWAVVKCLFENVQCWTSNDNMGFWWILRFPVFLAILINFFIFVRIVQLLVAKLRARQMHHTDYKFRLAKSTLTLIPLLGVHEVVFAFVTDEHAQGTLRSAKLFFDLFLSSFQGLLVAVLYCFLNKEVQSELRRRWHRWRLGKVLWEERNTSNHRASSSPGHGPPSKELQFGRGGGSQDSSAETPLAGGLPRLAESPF
Test: cell-based or functional assay
*1 amine or outer side, *2 acyl side, *3 side chain or, on linkers, in order; H or OH if unused. Where no end group is shown, it is not given here. Side-chain parts run from the residue outwards. The star is where a group is joined. X1 = 4‑(16-(1H-tetrazol-5-yl)hexadecanoylsulfamoyl)butanoyl, O=C(CCCCCCCCCCCCCCCc1nnn[nH]1)NS(=O)(=O)CCCC(=O)*; C18 diacid = O=C(O)CCCCCCCCCCCCCCCCC(=O)*; C16 diacid = O=C(O)CCCCCCCCCCCCCCC(=O)*; γGlu = O=C(O)[C@H](CCC(=O)[*:2])N[*:1]; AEEA = NCCOCCOCC(=O)O
Assay (I) Glucagon [EC50] values for the binders below.

binder: HSHGTFTSDYSKYLDERRAKDFVK([γGlu-γGlu-AEEA-AEEA-γGlu-C18 diacid])WLLST
Assay (I) Glucagon [EC50] / nM: 0.237
//
binder: HSQGTFTSDYSRYLDVRRAQDFVK([γGlu-γGlu-AEEA-AEEA-γGlu-C18 diacid])WLLST
Assay (I) Glucagon [EC50] / nM: 1.32
//
binder: HSQGTFTSDYSRYLDLRRAQDFVK([γGlu-γGlu-AEEA-AEEA-X1])WLLST
Assay (I) Glucagon [EC50] / nM: 0.357
//
binder: HSQGTFTSDYSRYLDARRAQDFVK([γGlu-γGlu-AEEA-AEEA-γGlu-C16 diacid])WLLST
Assay (I) Glucagon [EC50] / nM: 0.022
//
binder: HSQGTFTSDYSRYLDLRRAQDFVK([γGlu-γGlu-γGlu-AEEA-AEEA-γGlu-C18 diacid])WLLST
Assay (I) Glucagon [EC50] / nM: 0.243
